Readout Label: melting point

Example entries and their recorded answers appear below.
Compound: Fc1ccc2c(c1)C1=NCCN1C(Cl)=N2
melting point: 209 to 211 °C

Compound: O=C(O)C#CC(O)(c1ccc(OCc2ccc3ccccc3n2)cc1)c1ccc(OCc2ccc3ccccc3n2)cc1
melting point: 169 to 172 °C

Compound: CN1CCCN=C1C(Cl)(Cl)[N+](=O)[O-]
melting point: 92 to 93 °C

Compound: CCc1c(OC)c(C)c(OC)c2c1C(=O)N(CSc1nnnn1-c1ccccc1)S2(=O)=O
melting point: 44 to 46 °C

Compound: Cc1ccc(-c2ccc(OC3SCC(O)C(O)C3O)cn2)cn1 (stereo not given)
melting point: 228 °C

Prompt: If you can, please state the reported melting point value of Clc1nc(Cl)nc(-c2ccccc2)n1 .
Completion: 118 to 120 °C

Prompt: If you can, please state the reported melting point value of Nc1cc(-c2noc(-c3cnc4ccc(-c5ccc(C(F)(F)F)cc5)cn34)n2)ccn1 .
Completion: 280 °C

Prompt: If you can, please state the reported melting point value of O=C(CC1CCCCC1=O)c1ccc(O)cc1 (stereo not given) .
Completion: 120 to 125 °C

Prompt: If you can, please state the reported melting point value of COc1cc(Nc2nccc(Nc3ccc(CC(=O)O)cc3)n2)cc(OC)c1OC .
Completion: 144 to 150 °C

Prompt: If you can, please state the reported melting point value of COc1cc2c(cc1OC)C(C)N(C(=O)Cc1cccc([N+](=O)[O-])c1)CC2 (stereo not given) .
Completion: 120 to 121 °C
